Biological target: Albumin (Homo sapiens, UniProt P02768)
Sequence (P02768 whole entry): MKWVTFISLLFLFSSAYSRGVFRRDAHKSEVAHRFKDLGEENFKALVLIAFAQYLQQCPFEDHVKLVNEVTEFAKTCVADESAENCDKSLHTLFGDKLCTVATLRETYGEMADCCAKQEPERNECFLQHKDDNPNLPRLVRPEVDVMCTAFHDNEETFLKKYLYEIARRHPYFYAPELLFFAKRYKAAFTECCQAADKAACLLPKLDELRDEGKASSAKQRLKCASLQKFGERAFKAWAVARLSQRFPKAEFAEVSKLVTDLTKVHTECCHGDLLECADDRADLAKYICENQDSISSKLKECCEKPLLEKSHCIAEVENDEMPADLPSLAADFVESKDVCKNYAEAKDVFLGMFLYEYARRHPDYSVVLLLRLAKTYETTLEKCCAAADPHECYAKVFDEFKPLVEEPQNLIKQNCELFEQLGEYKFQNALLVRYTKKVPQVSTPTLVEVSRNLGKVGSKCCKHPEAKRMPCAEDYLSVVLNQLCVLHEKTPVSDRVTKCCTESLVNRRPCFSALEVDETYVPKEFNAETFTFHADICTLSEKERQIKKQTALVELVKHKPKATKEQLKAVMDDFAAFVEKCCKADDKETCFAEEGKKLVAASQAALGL
Experiment: Binding affinity to serum albumin (unknown origin) at 1 to 100 uM
Assay type: ADME
Conditions: read-out: PB
measurement-label: fraction unbound at up to 100 µM

Data request: Form field - read-out: fraction unbound at up to 100 µM; system: Albumin (Homo sapiens, UniProt P02768); submitted item: CCc1c(C)nn(CCNC(=O)C2C(c3ccc(F)cc3)C2(C)C)c1C (stereo unspecified)
Data returned: > 0.95

---

System: REH
Assay: Antiproliferative activity in human REH cells assessed as inhibition of cell proliferation incubated for 72 hrs by CCK8 assay
Assay type: functional, cell-based
measurement-label: IC50 (µM)
Give a bare numeral; the unit µM is implied.

Data request: # IC50 lookup, item CCc1c(C)nn(CCNC(=O)C2C(c3ccc(F)cc3)C2(C)C)c1C (stereo unspecified)
Data returned: 16.5
